System: B6C3F1 mice, intracerebral ependymoblastoma, median survival T/C
experimentalDetails: NCI In Vivo Anticancer Drug Screen. Data for tumor model Ependymoblastoma (intracerebral) in B6C3F1 mice
measurementConditions: endpoint: median survival time; dose: 100.0 mg/kg/injection; schedule: Q01DX005 (ip); vehicle: saline; higher = longer survival
Toxic doses and inconclusive results are not listed.
parameter: T/C

# smilesEntry, parameter, result
rows = [
    ("COc1c(C)c2c(c(O)c1C/C=C(\\C)CCC(=O)O)C(=O)OC2", "T/C", "98 % of control"),
    ("CN(C)CC(=O)c1ccc(O)c(O)c1", "T/C", "100 % of control"),
    ("CN(N=O)C(=O)N[C@@H](C=O)[C@@H](O)[C@H](O)[C@H](O)CO", "T/C", "113 % of control"),
    ("CN(C)c1nc(N(C)C)nc(N(C)C)n1", "T/C", "94 % of control"),
    ("CN(C)C1=CC(=O)C(N(C)C)=CC1=O", "T/C", "97 % of control"),
]

src = PubChem BioAssay AID226
